target: P2Y purinoceptor 2 (Homo sapiens); test: Agonist activity at human P2Y2 receptor expressed in 1321N1 cells assessed as IP accumulation by SPA at 1 uM; format: functional, cell-based
Sequence (P41231 whole entry): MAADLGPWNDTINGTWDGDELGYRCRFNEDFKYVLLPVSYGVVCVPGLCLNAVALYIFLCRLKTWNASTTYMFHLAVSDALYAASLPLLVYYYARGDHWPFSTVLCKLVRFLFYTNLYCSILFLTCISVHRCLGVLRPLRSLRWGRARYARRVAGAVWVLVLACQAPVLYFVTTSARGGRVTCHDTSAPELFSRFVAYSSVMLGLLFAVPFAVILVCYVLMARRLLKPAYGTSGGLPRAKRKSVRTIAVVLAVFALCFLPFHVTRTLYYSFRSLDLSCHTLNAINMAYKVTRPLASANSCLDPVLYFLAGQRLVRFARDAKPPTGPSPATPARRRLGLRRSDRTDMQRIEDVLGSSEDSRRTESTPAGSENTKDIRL
API: label(entry) gives Y if the entry's Activity is strictly smaller than 6%; on equality or larger values it gives N.

[
  {
    "structure string": "O=C(Cn1c(=O)ccn([C@@H]2O[C@H](COP(=O)(O)OP(=O)(O)OP(=O)(O)O)[C@@H](O)[C@H]2OP(=O)(O)O)c1=O)c1ccccc1",
    "category label": "N"
  },
  {
    "structure string": "O=C(Cn1c(=O)ccn([C@@H]2O[C@H](COP(=O)(O)OP(=O)(O)OP(=O)(O)O)[C@@H](O)[C@H]2O)c1=O)c1ccccc1",
    "category label": "N"
  },
  {
    "structure string": "CCCc1cc(=O)n([C@@H]2O[C@H](COP(=O)(O)OP(=O)(O)OP(=O)(O)O)[C@@H](O)[C@H]2O)c(=O)[nH]1",
    "category label": "N"
  },
  {
    "structure string": "O=c1[nH]c(=O)n([C@@H]2O[C@H](COP(=O)(O)O)[C@@H](O)[C@H]2O)cc1Br",
    "category label": "Y"
  }
]
